Source: patent US20230105029A1

- experimentalSystem: T1, human IL4Rα expressed on 293F-IL4Rα cells (human, UniProt P24394 26-825)
- T1 construct: whole, on cells; also called cell surface human IL4Rα
- testMethodNotes: flow cytometry, blocks biotin-IL4 binding to 293F-IL4Rα cells
# IC50 per record follows
Please answer in the form of a number followed by its unit of measurement.

q: Please give measured IC50 of the following entry: huC2C1A1A1-V14 (antibody, human IgG4 S228P, kappa, V domains shown, Humanized, human IgG4/kappa) VH: EVQLVESGGGLVQPGGSLRLSCAASGFTFSTYGMSWVRQAPGKGLVWVATINSNGGSTSYPDSVKGRFTISRDNAKNTLYLQMNSLRAEDTAVYYCARFFRFRNAMDYWGQGTLVTVSS VL: DIQMTQSPSSLSASVGQRVTITCRTSENIYSYLAWYQQKQGKPPRFLIYNAKTLAEGVPSRFSGSGSGTEFTLTITSLQAEDFGVYYCQHYYGPPTWTFGPGTKLEIKR
a: 0.58 nM

Read the next record carefully.
q: For the binder huC2C1A1A1-V15 (antibody, human IgG4, V domains shown, Humanized, human IgG4/kappa) VH: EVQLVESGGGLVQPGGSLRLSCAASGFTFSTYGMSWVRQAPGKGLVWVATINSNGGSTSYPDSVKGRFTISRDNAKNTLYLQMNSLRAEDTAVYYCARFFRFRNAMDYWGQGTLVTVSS VL: DIQMTQSPSSLSASVGDRVTITCRTSENIYSYLAWYQQKPGKAPKFLVYNAKTLAEGVPSRFSGSGSGTDFTLTISSLQPEDFATYYCQHYYGPPTWTFGQGTKVEIKR , give its measured IC50 value.
a: 0.5 nM
